# Lookup of reported BAF3-FLT3 (MIN IL3) 384 well pIC50 keyed by entry
molecular target: Ba/F3-Flt3-transfected cells (Homo sapiens, UniProt P36888, cells depend on it, form not given); assay: Ba/F3-Flt3 (minus IL3) cellular proliferation assay, Alamar Blue; assay type: cell-based; conditions: minus IL3

molecule	BAF3-FLT3 (MIN IL3) 384 well pIC50
COc1cc(OC)cc(N(CCCO)c2ccc3ncc(-c4cccnc4F)nc3c2)c1	<5

Kindly indicate its recorded BAF3-FLT3 (MIN IL3) 384 well pIC50. Item: COCC(O)CN(c1cc(OC)cc(OC)c1)c1ccc2ncc(-c3cccnc3)nc2c1 (single isomer, unassigned) [Compound 47]
<5

Name the recorded BAF3-FLT3 (MIN IL3) 384 well pIC50 of the item COc1cc(OC)cc(N(CC(O)CO)c2ccc3ncc(-c4ccc(N)nc4)nc3c2)c1 (stereo not shown) in your answer.
<5

Find the measured BAF3-FLT3 (MIN IL3) 384 well pIC50 of `CNC(=O)OCCN(c1cc(OC)cc(OC)c1)c1ccc2ncc(-c3ccc(NC(=O)OC(C)(C)C)nc3)nc2c1` and report it.
<5
